- TARGET_ENTITY: Brucella abortus CcrM (Brucella abortus, UniProt Q2YMK2)
- Sequence (Q2YMK2 whole entry, looked up): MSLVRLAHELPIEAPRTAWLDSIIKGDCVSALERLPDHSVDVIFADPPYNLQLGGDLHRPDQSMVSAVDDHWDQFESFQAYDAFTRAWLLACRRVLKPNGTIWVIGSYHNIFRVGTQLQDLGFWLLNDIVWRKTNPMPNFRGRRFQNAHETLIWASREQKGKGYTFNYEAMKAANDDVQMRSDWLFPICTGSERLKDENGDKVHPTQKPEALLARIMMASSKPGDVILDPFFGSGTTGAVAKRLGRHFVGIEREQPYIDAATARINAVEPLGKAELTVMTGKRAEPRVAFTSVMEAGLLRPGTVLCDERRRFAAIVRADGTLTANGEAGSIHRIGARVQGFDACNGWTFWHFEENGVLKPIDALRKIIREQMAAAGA
- Format: biochemical
OBSERVATION_TYPE: % reaction Brucella abortus CcrM Activity (%)
Record the value in %, omitting the unit from your answer.

Solved cases (8 shown):
MOLECULE | TARGET_ENTITY | UNIT_TEXT | ASSAY_RESULT
Clc1ccc(B(Oc2ccc(Cl)c3cccnc23)c2ccc(Cl)cc2)cc1 | Brucella abortus CcrM (Brucella abortus, UniProt Q2YMK2) | % | 81
Cc1ccc2cccc(OB(c3ccc(Cl)cc3)c3ccc(Cl)cc3)c2n1 | Brucella abortus CcrM (Brucella abortus, UniProt Q2YMK2) | % | 40
COc1ccc(B(Oc2cccc3ccc(C)nc23)c2ccc(OC)cc2)cc1 | Brucella abortus CcrM (Brucella abortus, UniProt Q2YMK2) | % | 56
Clc1ccc(B(Oc2cccc3cccnc23)c2ccc(Cl)cc2)cc1 | Brucella abortus CcrM (Brucella abortus, UniProt Q2YMK2) | % | 61
NCCOB(c1ccc(F)cc1)c1ccc(F)cc1 [Compound 19ii] | Brucella abortus CcrM (Brucella abortus, UniProt Q2YMK2) | % | 8
c1csc(B(Oc2cccc3cccnc23)c2cccs2)c1 | Brucella abortus CcrM (Brucella abortus, UniProt Q2YMK2) | % | 74
Fc1ccc(B(Oc2cccc3cccnc23)c2ccc(F)cc2)cc1 [Compound 11ii] | Brucella abortus CcrM (Brucella abortus, UniProt Q2YMK2) | % | 61
Cc1ccc2cccc(OB(c3ccc(F)cc3)c3ccc(F)cc3)c2n1 [Compound 12ii] | Brucella abortus CcrM (Brucella abortus, UniProt Q2YMK2) | % | 17

Task item: Look up % reaction Brucella abortus CcrM Activity of c1cnc2c(OB(c3ccc4c(c3)OCO4)c3ccc4c(c3)OCO4)cccc2c1 [Compound 11vi] and report it.
Reply: 42

Task item: Look up % reaction Brucella abortus CcrM Activity of Fc1ccc(B(Oc2ccc(Cl)c3cccnc23)c2ccc(F)cc2)cc1 [Compound 13ii] and report it.
Reply: 55

Task item: Look up % reaction Brucella abortus CcrM Activity of O=[N+]([O-])c1ccc(OB(c2ccc3c(c2)OCO3)c2ccc3c(c2)OCO3)c2ncccc12 [Compound 14vi] and report it.
Reply: 21

The reported numbers originate from patent EP1339725B1.
